# Measurement Notes: Pharmacokinetic (PK) assay in mice
# Type: in vivo
# Condition Info: mouse, plasma; IV 1 mg/kg, CD-1 mice; read-out: Vss
Assay Endpoint: Vd (L/kg)
Give the quantity in L/kg, number only.

Worked set:
1. CS(=O)(=O)c1ccc(CC(=O)Nc2cc(Cl)c(-c3ccc(S(=O)(=O)C4CC4)cc3)c(Cl)c2)cc1 ... 1.04
2. CCS(=O)(=O)c1ccc(-c2c(Cl)cc(NC(=O)C(COC)c3ccc(S(=O)(=O)CC)cc3)cc2Cl)cc1 (centres unmarked) ... 0.713

Which Vd is listed for CCS(=O)(=O)c1ccc(CC(=O)Nc2cc(Cl)c(-c3ccc(S(C)(=O)=O)cc3)c(Cl)c2)cc1 ?
1.09

Which Vd is listed for CCS(=O)(=O)c1ccc(-c2c(Cl)cc(NC(=O)Cc3ccc(S(=O)(=O)CC)cn3)cc2Cl)cc1 ?
0.893

Which Vd is listed for CC(C)(C[C@H]1CN(S(=O)(=O)c2cccc(C(F)(F)F)c2)c2cc(-c3cc(F)cc(OC(F)F)c3)ccc2O1)C(=O)O [LYC-55716, reference compound] ?
7.23

Hey, just so you know, these numbers are from patent US20220402867A1.
